Numbers sourced from PubChem BioAssay AID588724.

Each entry below carries its measured pIC50, system: Potassium channel subfamily K member 9 (Homo sapiens).
To interpret pIC50, take it as minus log10 of a concentration measured in moles per litre.

Please review the entries below; each comes with its answer.
| compound | endpoint_result |
| --- | --- |
| CC(C1CC2CCC1C2)n1c(SCC(=O)c2ccccc2)nnc1-c1ccco1 (centres undefined) | 5.28 |
| CC(C1CC2CCC1C2)N(C)C(=O)c1ccco1 (centres undefined) | 6.44 |
| CC(C1CC2CCC1C2)n1c(-c2ccccc2F)n[nH]c1=S (centres undefined) | 6.96 |
| CC(NC(=O)c1ccco1)C1CC2CCC1C2 (centres undefined) | 4.87 |
| CC(C1CC2CCC1C2)n1c(SCC(=O)c2ccc(Cl)c(Cl)c2)nnc1-c1ccco1 (centres undefined) | 5.11 |
| COc1ccc(C(=O)CSc2nnc(-c3ccco3)n2C(C)C2CC3CCC2C3)cc1OC (centres undefined) | 5.74 |

Query the reported pIC50 for Potassium channel subfamily K member 9 (Homo sapiens); item: CSc1nnc(-c2ccco2)n1C(C)C1CC2CCC1C2 (centres undefined)
4.67

Repeat with COc1cccc(Cc2n[nH]c(=S)n2C(C)C2CC3CCC2C3)c1 (centres undefined)
5.59

What about this compound? "COc1ccccc1C(=O)Nc1cccc(NC(=O)c2cccc3ccccc23)c1"
6.63

====

Target: UniProt Q9NPC2
Recorded pIC50 for the following compounds
By convention, pIC50 is the negative base-10 log of a molar concentration.

Sample answers from the record:
| compound | endpoint_result |
| --- | --- |
| CC(C1CC2CCC1C2)n1cnnc1-c1ccco1 (stereo not given) | 5.77 |
| COc1cccc(-c2nnc(S(C)(=O)=O)n2C(C)C2CC3CCC2C3)c1 (stereo not given) | 4.74 |
| CC(C1CC2CCC1C2)n1c(SC(F)F)nnc1-c1ccco1 (stereo not given) | 5.07 |

Please report the recorded pIC50 for CC(C1CCCCC1)n1c(-c2ccco2)n[nH]c1=S (stereo not given) .
5.45

Can you handle CC(C1CC2CCC1C2)n1c(SCC(=O)c2ccc3c(c2)OCO3)nnc1-c1ccco1 (stereo not given) next?
5.79

Try COc1ccc(C(=O)CSc2nnc(-c3ccco3)n2C(C)C2CC3CCC2C3)cc1 (stereo not given) next.
5.04

====

Biological target: Potassium channel subfamily K member 9 (Homo sapiens) (UniProt Q9NPC2)
Sequence (Q9NPC2 whole entry, looked up): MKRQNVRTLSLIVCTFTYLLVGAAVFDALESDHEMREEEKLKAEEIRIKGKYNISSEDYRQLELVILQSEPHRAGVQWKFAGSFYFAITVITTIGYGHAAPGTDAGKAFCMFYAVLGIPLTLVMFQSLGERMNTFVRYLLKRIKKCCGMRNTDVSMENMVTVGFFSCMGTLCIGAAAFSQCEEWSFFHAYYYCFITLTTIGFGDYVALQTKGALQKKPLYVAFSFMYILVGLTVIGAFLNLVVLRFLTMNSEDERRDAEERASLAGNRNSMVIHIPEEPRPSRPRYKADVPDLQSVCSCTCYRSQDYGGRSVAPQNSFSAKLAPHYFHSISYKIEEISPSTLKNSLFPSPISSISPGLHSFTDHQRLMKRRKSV
Assay: KCNK9 channel inhibitors, concentration-response, SAR follow-up, cell-based, round III (AID 588724)
Details: HEK293-KCNK9, FluxOR thallium flux fluorescence
parameter: IC50

Please review the entries below; each comes with its answer.
| compound | IC50 |
| --- | --- |
| C[C@H](C1CCCCC1)n1c(-c2ccco2)n[nH]c1=S | 187 nM |
| CC(C)c1ccccc1C(=O)Nc1cccc(NC(=O)c2ccccc2OC(F)(F)F)c1 | 732 nM |
| CC(C1CC2CCC1C2)n1c(-c2cccc(F)c2)n[nH]c1=S (centres undefined) | 134 nM |

Find the recorded IC50 belonging to "C[C@@H](C1CCCCC1)n1c(-c2ccco2)n[nH]c1=S" and report it.
9410 nM

Try this compound next: CC(C1CC2CCC1C2)n1c(-c2cccn2C)n[nH]c1=S (centres undefined)
1390 nM

Please do the same for CC(C1C2CCC1CC2)n1c(-c2ccco2)n[nH]c1=S (centres undefined) as well.
1170 nM

Could you do the same for CC(C1CC2CCC1C2)n1c(-c2ccccn2)n[nH]c1=S (centres undefined) , please?
2370 nM

Also "CC(C)Oc1ccccc1C(=O)Nc1cccc(NC(=O)c2ccccc2OC(F)(F)F)c1" ?
65.1 nM

====

Molecular target: Potassium channel subfamily K member 9 (Homo sapiens) (UniProt Q9NPC2)
pIC50: −log10 of the molar value.
Threshold check on pIC50: at or above 6 gives True, strictly below gives False.

Example entries and their recorded answers appear below.
| molecule | answer_label |
| --- | --- |
| CC(C1CC2CCC1C2)n1c(-c2cccc(N(C)C)c2)n[nH]c1=S (stereo unspecified) | False |
| CC(C1CC2CCC1C2)n1c(SCC#N)nnc1-c1cccs1 (stereo unspecified) | False |
| CC(C1CC2CCC1C2)n1c(-c2ccco2)nnc1C(F)(F)F (stereo unspecified) | False |
| COc1cccc(C(=O)CSc2nnc(-c3ccco3)n2C(C)C2CC3CCC2C3)c1 (stereo unspecified) | False |
| CC(CC1CC2CCC1C2)n1c(-c2ccco2)n[nH]c1=S (stereo unspecified) | True |

State whether the measured pIC50 reaches 6, counting equality as reaching it, for CC(C1CC2CCC1C2)n1c(-c2cccs2)n[nH]c1=S (stereo unspecified)
True

Same for COc1ccc(CCSc2nnc(-c3ccco3)n2C(C)C2CC3CCC2C3)cc1OC (stereo unspecified)
False

Try this molecule next: COc1cccc(-c2n[nH]c(=S)n2C(C)C2CC3CCC2C3)c1OC (stereo unspecified)
False

====

# Potassium channel subfamily K member 9 (Homo sapiens): pIC50 values follow
Recall that pIC50 is obtained by taking minus log10 of the concentration measured in molar.

| compound | target | pIC50 |
| --- | --- | --- |
| COc1cc(OC)cc(-c2n[nH]c(=S)n2C(C)C2CC3CCC2C3)c1 (stereo not drawn) | Potassium channel subfamily K member 9 (Homo sapiens) | 5.99 |
| CC(C1CC2CCC1C2)n1c(SCc2ccccc2)nnc1-c1ccco1 (stereo not drawn) | Potassium channel subfamily K member 9 (Homo sapiens) | 5.86 |

Could you now consider this next compound?
Provide value of pIC50 for this record tested with Potassium channel subfamily K member 9 (Homo sapiens): CC(CCC1CCCC1)n1c(-c2ccco2)n[nH]c1=S (stereo not drawn)
6.04
